Experiment: Cell viability (survival) assay with CellTiter-Glo, 48 hours
Type: cell-based, mouse
Settings: mouse; 200 uM, 48 hours, normalized to DMSO-treated control cells
Description: For assays of survival, 15,000 cells were plated per well in a 96-well plate in 100 μl media with 5 replicates per condition. Wells along the four edges of the plate were not used. Following cell attachment, the indicated drugs were added in an equal volume of media, and incubated for an additional 48 hours. […] 100 μl of supernatant was transferred to a 96-well white opaque plate and luminescence was read on a Tecan microplate reader. […]
metric-name: viability at 48 h, 200 µM

{"compound": "O=P1(N(CCCl)CCCl)NCCCO1 (stereo not shown) [CPM, cyclophosphamide]", "metric-name": "viability at 48 h, 200 µM", "result-value": "101%"}
